Data provenance: PubChem BioAssay AID2060499

- Test system: 777334-354-R2-J4-PDC tumor spheroids with HUVEC/MSC, viability;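 further: spheroids exposed to compounds for 7 days before readout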
- test: Anticancer human tumor 777334-354-R2-J4-PDC patient-derived pancreatic adenocarcinoma cell line growth inhibition [GQUAD]
- condition set: second compound 10 µM; first compound 0.0316 µM; active compounds read low
Doc: threshold 60% (exclusive). Items with viability, T/C beneath it return satisfied; others return not satisfied.

Solved entries:
- compound: "O=C(c1cc(Cc2n[nH]c(=O)c3ccccc23)ccc1F)N1CCN(C(=O)C2CC2)CC1 + Cc1[nH]c2ccc(F)cc2c1-c1nc2c3cccnc3c3ncccc3c2[nH]1"
  test system: "777334-354-R2-J4-PDC tumor spheroids with HUVEC/MSC, viability"
  category label: "satisfied"
- compound: "C#Cc1c(F)ccc2cc(O)cc(-c3ncc4c(N5CC6CCC(C5)N6)nc(OCC56CCCN5CC(F)C6)nc4c3F)c12 (centres undefined) + CN(C)c1ccc(Nc2c3ccc(NC(=O)CCN4CCCC4)cc3nc3cc(NC(=O)CCN4CCCC4)ccc23)cc1"
  test system: "777334-354-R2-J4-PDC tumor spheroids with HUVEC/MSC, viability"
  category label: "satisfied"
- compound: "O=c1[nH]cc(F)c(=O)[nH]1 + CN(C)c1ccc(Nc2c3ccc(NC(=O)CCN4CCCC4)cc3nc3cc(NC(=O)CCN4CCCC4)ccc23)cc1"
  test system: "777334-354-R2-J4-PDC tumor spheroids with HUVEC/MSC, viability"
  category label: "not satisfied"

Query: Is 60% strictly greater than the compound's reported viability, T/C? compound: CC(C)n1c(=O)n(C)c2cnc3cc(F)c(-c4ccc(OCCCN5CCCCC5)nc4)cc3c21 + Cc1cnc(CNC(=O)c2c(=O)c3ccc(N4CCCN(C)CC4)nc3n3c2sc2ccccc23)cn1
Reply: satisfied

Query: Is 60% strictly greater than the compound's reported viability, T/C? compound: O=C(c1cc(Cc2n[nH]c(=O)c3ccccc23)ccc1F)N1CCN(C(=O)C2CC2)CC1 + CN(C)c1ccc(Nc2c3ccc(NC(=O)CCN4CCCC4)cc3nc3cc(NC(=O)CCN4CCCC4)ccc23)cc1
Reply: not satisfied

Query: Is 60% strictly greater than the compound's reported viability, T/C? compound: Cc1cccc(N(C)C(=O)C2C(O)CCN2c2nc(C)cc(C(F)(F)F)c2C#N)c1 (centres undefined) + Cc1cnc(CNC(=O)c2c(=O)c3ccc(N4CCCN(C)CC4)nc3n3c2sc2ccccc23)cn1
Reply: not satisfied

Query: Is 60% strictly greater than the compound's reported viability, T/C? compound: CCc1c2c(nc3ccc(O)cc13)-c1cc3c(c(=O)n1C2)COC(=O)[C@]3(O)CC + Cc1[nH]c2ccc(F)cc2c1-c1nc2c3cccnc3c3ncccc3c2[nH]1
Reply: satisfied

Query: Is 60% strictly greater than the compound's reported viability, T/C? compound: Cn1ncnc1[C@H]1c2n[nH]c(=O)c3cc(F)cc(c23)N[C@@H]1c1ccc(F)cc1 + Cc1[nH]c2ccc(F)cc2c1-c1nc2c3cccnc3c3ncccc3c2[nH]1
Reply: satisfied

Query: Is 60% strictly greater than the compound's reported viability, T/C? compound: Nc1ccn(C2OC(CO)C(O)C2(F)F)c(=O)n1 (centres undefined) + Cc1cnc(CNC(=O)c2c(=O)c3ccc(N4CCCN(C)CC4)nc3n3c2sc2ccccc23)cn1
Reply: satisfied

Query: Is 60% strictly greater than the compound's reported viability, T/C? compound: Cc1cccc(N(C)C(=O)C2C(O)CCN2c2nc(C)cc(C(F)(F)F)c2C#N)c1 (centres undefined) + Cc1[nH]c2ccc(F)cc2c1-c1nc2c3cccnc3c3ncccc3c2[nH]1
Reply: satisfied

Query: Is 60% strictly greater than the compound's reported viability, T/C? compound: CC[C@@]1(O)C(=O)OCc2c1cc1n(c2=O)Cc2cc3c(CN(C)C)c(O)ccc3nc2-1 + Cc1[nH]c2ccc(F)cc2c1-c1nc2c3cccnc3c3ncccc3c2[nH]1
Reply: satisfied

Query: Is 60% strictly greater than the compound's reported viability, T/C? compound: Cc1[nH]c2ccccc2c1CCNCc1ccc(/C=C/C(=O)NO)cc1 + Cc1[nH]c2ccc(F)cc2c1-c1nc2c3cccnc3c3ncccc3c2[nH]1
Reply: satisfied
